biological target: GPCR22 (Rattus norvegicus, UniProt D4A3U0); assay: [3H]-guanosine binding to GPCR22 protein extracted from transfected S2 cells, competition with cold guanosine; settings: single high affinity binding site; 10 nM [3H]-guanosine, 25° C., 75 min; FIG. 14
Sequence (D4A3U0 whole entry): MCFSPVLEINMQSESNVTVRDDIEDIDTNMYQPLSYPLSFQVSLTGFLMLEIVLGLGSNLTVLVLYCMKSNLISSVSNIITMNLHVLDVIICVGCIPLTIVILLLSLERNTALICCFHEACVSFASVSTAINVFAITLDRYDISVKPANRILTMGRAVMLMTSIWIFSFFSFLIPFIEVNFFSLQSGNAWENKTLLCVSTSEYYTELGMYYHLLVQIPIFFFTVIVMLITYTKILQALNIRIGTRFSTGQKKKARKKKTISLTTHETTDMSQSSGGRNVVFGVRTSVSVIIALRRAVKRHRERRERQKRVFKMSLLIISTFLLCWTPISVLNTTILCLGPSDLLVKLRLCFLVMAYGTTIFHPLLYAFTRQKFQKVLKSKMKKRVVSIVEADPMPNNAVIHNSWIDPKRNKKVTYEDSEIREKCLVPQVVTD
outcomeMeasure: Kd (nM)
Return type: number; implicit unit nM.

Param item = Nc1nc2c(ncn2[C@@H]2O[C@H](CO)[C@@H](O)[C@H]2O)c(=O)[nH]1 ; retrieve measured Kd. 171
